Data provenance: PubChem BioAssay (NCI)

Below is a list of entries, each paired with its recorded growth value.
- Test system: EKVX NSCLC
- assay.protocol: NCI-60 one-dose screen, 48 h (100 = growth as untreated, 0 = no growth, -100 = all killed)
- stated.conditions: 10 µM unless noted
Compounds without any hit were thinned out: in the full panel of roughly 83,000, 20% have a hit.
Just the number please, in %, no unit attached.

Sample records with growth:
• CC1(C)CC[C@]2(C(=O)N3CCOCC3)CC[C@]3(C)C(=CC[C@@H]4[C@@]5(C)C/C(=C/c6ccccn6)C(=O)C(C)(C)[C@@H]5CC[C@]43C)[C@@H]2C1 = 56.1
• C=CCn1c(SCC(=O)Nc2ccc(C(=O)/C=C/c3ccc(Cl)cc3)cc2)nnc1-c1c[nH]c2ccccc12 = 56.1
• NS(=O)(=O)c1ccc(Nc2nc(SCC(=O)c3ccc(Cl)cc3)nc3c2CCCC3)cc1 = 47.8

# context switch: different molecule, same growth
I would be grateful if you could share the reported growth for `O=C(Cn1cc(-c2ccccc2)nn1)Nc1nc(-c2ccc(Cl)cc2)cs1` . 98
